// data source = ChEMBL document CHEMBL4145665

Examples of compounds with documented Vd follow.
test: Volume of distribution at steady state in Wistar-Han rat at 1 mg/kg, iv or 2 mg/kg, po administered as single dose; type: ADME, organism-based; settings: in vivo, read-out: Vdss
measurement.name: Vd (L/kg)

INSERT INTO results (compound, measurement_name, unit_of_measurement, observed_measurement) VALUES
  ('COc1ccc(F)c(-c2ccc(C3CCc4ccc([C@H](C5CC5)[C@H](C)C(=O)[O-])cc4O3)cc2)c1.[Na+] (stereo in doubt; 14)', 'Vd', 'L/kg', 0.41),
  ('COc1cc(-c2ccc(C3CCc4ccc([C@H](C5CC5)[C@H](C)C(=O)[O-])cc4O3)nc2)c(F)cn1.[Na+] (stereo in doubt; 29)', 'Vd', 'L/kg', 0.41),
  ('COc1cc(-c2ccc([C@@H]3CCc4ccc([C@H](C5CC5)[C@H](C)C(=O)[O-])cc4O3)c(F)c2)ccn1.[Na+]', 'Vd', 'L/kg', 0.48);
